Molecular target: S1P3 (Homo sapiens)
Sequence (Q99500 whole entry): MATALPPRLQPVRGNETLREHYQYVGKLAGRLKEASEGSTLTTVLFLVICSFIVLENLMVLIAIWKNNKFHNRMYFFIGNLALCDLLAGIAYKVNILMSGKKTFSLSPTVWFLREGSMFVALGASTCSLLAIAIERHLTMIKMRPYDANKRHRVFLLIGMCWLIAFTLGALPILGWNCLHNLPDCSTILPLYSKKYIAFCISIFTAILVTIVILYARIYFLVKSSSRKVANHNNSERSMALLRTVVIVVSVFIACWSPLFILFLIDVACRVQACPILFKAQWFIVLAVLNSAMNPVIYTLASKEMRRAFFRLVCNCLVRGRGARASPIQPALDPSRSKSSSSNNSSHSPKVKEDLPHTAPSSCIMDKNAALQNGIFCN
Test: Method A: Receptor [35S] GTPγS Binding Assay, membranes from EDG3-Ga15-bla HEK293T cells
Type: biochemical
Set-up: expressed in transfected cells; host or cells: EDG3-Ga15-bla HEK293T cells
Settings: EDG3-Ga15-bla HEK293T cell membranes
Protocol: Compounds were loaded in a 384 Falcon v-bottom plate (0.5 μl/well in a 3-fold dilution). Membranes prepared from S1P1/CHO cells or EDG3-Ga15-bla HEK293T cells were added to the compound plate (40 μl/well, final protein […]) with MULTIDROP®. [^35S]GTP (1250 Ci/mmol, Perkin Elmer) was diluted in assay buffer: 20 mM HEPES, pH7.5, 10 mM MgCl2, 150 mM NaCl, 1 mM EGTA, 1 mM DTT, 10 μM GDP, 0.1% fatty acid free BSA, and 10 mg/ml Saponin to 0.4 nM. 40 μl of the [^35S] […]
Structures can show the parent of a compound that is named as a salt.
// log10 of EC50 lookup, one value per entry
Values are log10 of EC50 in nM.

Consider the worked cases shown below.
CC(C)(C)c1c(-c2nc(-c3ccc(CN4CC(C(=O)O)C4)cc3)no2)noc1-c1ccccc1 [Example 7] ... 3.57
CC(F)(F)c1c(-c2nc(-c3ccc(CN4CC(C(=O)O)C4)cc3)no2)noc1-c1ccccc1 [Example 9] ... 3.40
CCCc1onc(-c2nc(-c3ccc(CN4CC(C(=O)O)C4)cc3)no2)c1CC(C)C [Example 19, TFA] ... 2.91

*Q* # query: log10 of EC50 of entry CCc1c(-c2nc(-c3ccc(CN4CC(C(=O)O)C4)c(Br)c3)no2)noc1-c1ccccc1 [Example 5]
*A* 3.23

*Q* # query: log10 of EC50 of entry O=C(O)C1CN(Cc2ccc(-c3noc(-c4noc(-c5ccccc5)c4C4CC4)n3)cc2)C1 [Example 6]
*A* 2.62

*Q* # query: log10 of EC50 of entry O=C(O)C1CN(Cc2ccc(-c3noc(-c4onc(-c5ccccc5)c4C(F)F)n3)cc2)C1 [Example 12]
*A* 3.56

*Q* # query: log10 of EC50 of entry CC(C)Cc1onc(-c2nc(-c3ccc(CN4CC(C(=O)O)C4)cc3)no2)c1C(F)(F)F [Example 20]
*A* 3.34

*Q* # query: log10 of EC50 of entry O=C(O)C1CN(Cc2ccc(-c3noc(-c4cc(-c5ccccc5)c(C(F)(F)F)s4)n3)cc2)C1 [Comp. A, reference compound]
*A* 1.99

*Q* # query: log10 of EC50 of entry CCCCc1c(-c2nc(-c3ccc(CN4CC(C(=O)O)C4)cc3)no2)noc1-c1ccccc1 [Example 3]
*A* 2.52
